Reported activity at 0.1 µM is given for each of the following compounds.
System: HIV-1
Test: Viral production in HIV-1-infected cultured monocytes at fixed 100 nM compound (Table II)
Type: cell-based
Conditions: Human immunodeficiency virus 1, Monocyte; 100 nM compound; monocytes infected 10 days prior, 10 ng p24/10^6 cells; read-out: Viral Production (percentage of untreated control)
Structures can show the parent of a compound that is named as a salt.
Record the result as number plus unit.

// known answers, use as guide
CC(=O)c1cc(Nc2nc(N)nc(N)n2)cc(C(C)=O)c1 [Compound No. 13]
14%
CC(=O)c1cccc(C(C)=O)c1N [2,6-diacetylaniline]
28%
CC(=O)c1cc(NC(=N)NC(=N)N)cc(C(C)=O)c1 [Compound No. 12, hydrochloride]
12%
CC(=O)c1cc(N)cc(C(C)=O)c1 [CNI-1894, 3,5-diacetylaniline]
20%

Next item in the queue.
Dear colleague, please send me the reported activity at 0.1 µM for CC(=O)c1cncc(C(C)=O)c1 [3,5-diacetylpyridine] when you can. 58%

====

Tested on: Plasmodium falciparum clone FCR-3
Test: Antimalarial activity in vitro, hypoxanthine incorporation, clone FCR-3
Assay type: cell-based
Settings: FCR3, clone FCR-3, n = 2, read-out: Pyrimethamine IC50
resultType: IC50 (nM)
All answers are understood in nM, so give the number only.

// output IC50; input CCc1nc(N)nc(N)c1-c1ccc(Cl)cc1 [Pyrimethamine, reference compound] ; system Plasmodium falciparum clone FCR-3 40

====

System: Plasmodium falciparum clone D10
Experiment: Antimalarial activity in vitro, hypoxanthine incorporation, clone D10
Format: cell-based
Settings: clone D10, n = 2, read-out: Pyrimethamine IC50
resultType: pIC50
Quick note: pIC50 means taking -log10 of the concentration in moles per liter.

Dear colleague, please send me the reported pIC50 for CCc1nc(N)nc(N)c1-c1ccc(Cl)cc1 [Pyrimethamine, reference compound] when you can. 3.77

====

Experiment: in vivo
Details: mouse, plasma, ip, 50 mg/kg
resultType: Vd/F (L)
All answers are understood in L, so give the number only.

Dear colleague, please send me the reported Vd/F for `CC(=O)c1cc(Nc2cc(C)[n+](C)c(N)n2)cc(C(C)=O)c1.[Cl-]` when you can. 14.1

====

Tested on: Plasmodium falciparum clone W2mef
Assay: Antimalarial activity in vitro, hypoxanthine incorporation, clone W2mef
Assay type: cell-based
Conditions: read-out: Pyrimethamine IC50
resultType: pIC50
Quick note: pIC50 means taking -log10 of the concentration in moles per liter.

Dear colleague, please send me the reported pIC50 for CCc1nc(N)nc(N)c1-c1ccc(Cl)cc1 [Pyrimethamine, reference compound] when you can. 4.75

====

Test: in vivo
Conditions: mouse, plasma, ip, 20 mg/kg
resultType: CL/F (mL/min)
All answers are understood in mL/min, so give the number only.

Dear colleague, please send me the reported CL/F for `CC(=O)c1cccc(Nc2cc(C)nc(N)n2)c1` when you can. 26.4

====

Assay: in vivo
Settings: mouse, plasma, ip, 50 mg/kg
resultType: CL/F (mL/min)
All answers are understood in mL/min, so give the number only.

// known answers, use as guide
CC(=O)c1cc(N)cc(C(C)=O)c1 [CNI-1894, 3,5-diacetylaniline]
3.3
CC(=O)c1cc(Nc2cc(C)[n+](C)c(N)n2)cc(C(C)=O)c1.[Cl-] [CNI-0294]
35.4

Next item in the queue.
Dear colleague, please send me the reported CL/F for CC(=O)c1cc(Nc2cc(C)nc(N)n2)cc(C(C)=O)c1 [Compound No. 11] when you can. 16.5

Ref: patent US5840893A
